Reported z-score of subpopulation abundance values are given for each entry in this list.
# Test system: Saccharomyces cerevisiae BY4741 SeMeCo community
# experimental-details: z-score of subpopulation abundance vs DMSO median, subpopulation auxotrophic for LUM; higher = larger share of this subpopulation than in DMSO controls
# condition-notes: 10 µM; 24 h; SM minimal medium; subpopulation (auxotrophy): LUM
Structures can show the parent of a compound that is named as a salt.

>  <compound>
CC(=O)[O-].[K+] [Potassium acetate]

>  <z-score of subpopulation abundance>
-0.06

$$$$
>  <compound>
CN[C@H]1CC[C@@H](c2ccc(Cl)c(Cl)c2)c2ccccc21 [Sertraline HCl]

>  <z-score of subpopulation abundance>
-1.09

$$$$
>  <compound>
CCn1cc(C(=O)O)c(=O)c2cc(F)c(N3CCNCC3)nc21 [Enoxacin Sesquihydrate]

>  <z-score of subpopulation abundance>
0.36

$$$$
>  <compound>
CN(C)[C@@H]1C(=O)C(C(N)=O)=C(O)[C@@]2(O)C(=O)C3=C(O)c4c(O)ccc(Cl)c4[C@@H](O)[C@H]3C[C@@H]12 [Demeclocycline HCl]

>  <z-score of subpopulation abundance>
-0.57

$$$$
